Source listed as patent US11766434B2.

So I've got a bunch of molecules here, and I need their IC50 values.
- subject-of-test: Cdc7/ASK (Homo sapiens)
- Sequence (O00311 whole entry): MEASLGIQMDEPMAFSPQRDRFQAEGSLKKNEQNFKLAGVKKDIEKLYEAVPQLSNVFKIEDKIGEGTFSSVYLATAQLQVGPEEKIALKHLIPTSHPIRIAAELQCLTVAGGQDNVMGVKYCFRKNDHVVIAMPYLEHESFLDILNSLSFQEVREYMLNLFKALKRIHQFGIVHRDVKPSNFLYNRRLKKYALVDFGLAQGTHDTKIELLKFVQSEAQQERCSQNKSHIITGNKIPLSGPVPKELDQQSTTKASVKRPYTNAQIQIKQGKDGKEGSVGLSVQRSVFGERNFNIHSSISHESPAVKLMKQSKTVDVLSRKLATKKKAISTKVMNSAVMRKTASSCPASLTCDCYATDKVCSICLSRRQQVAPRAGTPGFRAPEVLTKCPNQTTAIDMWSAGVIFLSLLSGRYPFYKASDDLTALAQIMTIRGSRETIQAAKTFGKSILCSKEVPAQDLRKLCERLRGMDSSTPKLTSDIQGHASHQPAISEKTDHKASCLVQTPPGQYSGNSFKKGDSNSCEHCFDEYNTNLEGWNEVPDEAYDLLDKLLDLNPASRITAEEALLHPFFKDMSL
- Sequence (Q9UBU7 whole entry partner): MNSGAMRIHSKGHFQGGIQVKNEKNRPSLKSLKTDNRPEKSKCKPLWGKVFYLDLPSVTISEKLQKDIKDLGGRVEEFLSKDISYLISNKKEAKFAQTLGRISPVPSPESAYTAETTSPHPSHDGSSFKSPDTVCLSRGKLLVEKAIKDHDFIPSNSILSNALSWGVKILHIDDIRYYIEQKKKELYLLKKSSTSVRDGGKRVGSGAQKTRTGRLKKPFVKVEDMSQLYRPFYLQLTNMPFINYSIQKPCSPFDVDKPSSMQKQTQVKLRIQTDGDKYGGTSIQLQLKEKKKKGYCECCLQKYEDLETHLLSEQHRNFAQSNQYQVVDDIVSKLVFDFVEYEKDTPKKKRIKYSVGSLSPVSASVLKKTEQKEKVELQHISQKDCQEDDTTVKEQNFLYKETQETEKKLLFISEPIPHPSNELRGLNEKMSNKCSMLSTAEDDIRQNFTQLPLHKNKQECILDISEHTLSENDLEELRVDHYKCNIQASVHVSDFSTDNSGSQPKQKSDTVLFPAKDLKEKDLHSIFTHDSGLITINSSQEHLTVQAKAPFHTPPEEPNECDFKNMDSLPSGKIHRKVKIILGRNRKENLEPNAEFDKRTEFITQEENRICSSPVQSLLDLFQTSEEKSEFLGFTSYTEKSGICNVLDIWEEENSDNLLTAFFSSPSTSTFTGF
- method-summary: Cdc7 biochemical assay Method 3: off-chip mobility shift assay (MSA) run at Carna Biosciences
- Design: purchased Carna Biosciences; host or cells: baculovirus expression system
- experimental-setup: MCM2 peptide 1000 nM, ATP 5 μM, 5 hours, read-out: Biochemical method 3 (pIC50) (converted)
Counter-ions that a name gives are not always drawn.
API: value field is a number in nM; no unit string.

// map C[C@@H]1COCCN1c1nc(-c2cn[nH]c2C(F)(F)F)[nH]c(=O)c1Cl to recorded IC50 (system: Cdc7/ASK (Homo sapiens))
3.98

Please state recorded IC50 (tested on Cdc7/ASK (Homo sapiens)) of C[C@@H]1CNCCN1c1nc(-c2scnc2Cl)[nH]c(=O)c1Cl [Compound 65, hydrochloride]
3.89

API: value(readout= IC50, system= Cdc7/ASK (Homo sapiens), query= Cc1ncsc1-c1nc(N2CCOC[C@H]2C)c(Cl)c(=O)[nH]1 )
7.41

Give the reported IC50 for O=c1[nH]c(-c2scnc2Cl)nc(N2CCNCC(F)C2)c1Cl (racemic) [Compound 71, hydrochloride] (system: Cdc7/ASK (Homo sapiens)).
5.75
